Listed here are variants together with their documented self-cleavage.
B1: HDV Ribozyme (parent)
chain: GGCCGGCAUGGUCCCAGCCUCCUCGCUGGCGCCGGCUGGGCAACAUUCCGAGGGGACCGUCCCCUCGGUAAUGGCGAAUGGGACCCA

Variants of: B1
Assay: self-cleavage, relative activity (ratio to wild type); higher = more cleavage; co-transcriptional

| Sequence Code | self-cleavage |
| --- | --- |
| GGCCGACAUGGGCCCAGCCUCCUCGCUGGCGCCGGCUGGGCAACAUUCCGAGGGGACCGUCCCCUCGGUAAUGGCGAAUGGGACCCA [G6A U12G] | 0.415 |
| GGCCGGCAUUGUCCCAGCCUCCUCGCUGCCGCCGGCUGGGCAACAUUCCGAGGGGACCGUCCCCUCGGUAAUGGCGAAUGGGACCCA [G10U G29C] | 0.0615 |
| GGCCGGCAUGGUCCCAGCGUCCUCGCUGGCGCCGGCUGGGCAACAUUCUGAGGGGACCGUCCCCUCGGUAAUGGCGAAUGGGACCCA [C19G C49U] | 0.0326 |
| GGCCGGCAUGGUCCCAGCCUCCUCGCUGGCGCCGGCUGGGCAACAUUCCGAGGGGACCGUCCCCGCGGUAAUGGCUAAUGGGACCCA [U65G G76U] | 0.966 |
| GGUCGGCAUGGUCCCAGCCUCCUCGCUGGCGCCGGCUGGGCAACAUUCCGAGGGGACCGUCCCCUCGGUAAUGGCGUAUGGGACCCA [C3U A77U] | 0.354 |
| GGCCGGCUUGGUCCCAGCCUCCUCGCUGGCGCCGGCUGGGCAACAUUCCGAGGCGACCGUCCCCUCGGUAAUGGCGAAUGGGACCCA [A8U G54C] | 0.538 |
| GGCCGGCAUGGUCCCAGCCUCCUCGCUGGCGCUGGCUGGGCAACAUUCCGAGGGGACCGUCCCCUCGGUAAUGCCGAAUGGGACCCA [C33U G74C] | 0.0339 |
| GGGCGGCAUGGUCCCAGCCUCCUCGCUGGCGCCGGCUGGGCAACAUUCCGAGGGGACCGUCCCCUUGGUAAUGGCGAAUGGGACCCA [C3G C66U] | 0.715 |
| GGCCGGCAUGGUCCCAGCCACCUCGCUGGCGCCGGCUGGGCAACAUUCCGAGGGGUCCGUCCCCUCGGUAAUGGCGAAUGGGACCCA [U20A A56U] | 0.0519 |
| GGCCGGCAUGGUCCCAGCCUCCGCGCUGGCGUCGGCUGGGCAACAUUCCGAGGGGACCGUCCCCUCGGUAAUGGCGAAUGGGACCCA [U23G C32U] | 0.6 |
| GGCCGGCAUGGUCCCAGCCUCCUCGCUGGCGCCGGCUGGGCAAUAUUCCGAGGGGACCGUCCCCUCGGUAAUGGCGAAUGGGACCCC [C44U A87C] | 0.618 |
| GGCCGACAUGGACCCAGCCUCCUCGCUGGCGCCGGCUGGGCAACAUUCCGAGGGGACCGUCCCCUCGGUAAUGGCGAAUGGGACCCA [G6A U12A] | 0.253 |
| GGACGGCAUGGUCCCAGCCUCCUCGCUGGCGCCGGCUGGGCAACAUUCCGAGGGGACCGUCCCCUCGGUAGUGGCGAAUGGGACCCA [C3A A71G] | 0.38 |
| GGCCGGCAUGGUCCCAGCCUCCUCGCUGGCGCCGGCUGGGUAACAUUCCGAGGGGACCGUCCACUCGGUAAUGGCGAAUGGGACCCA [C41U C63A] | 0.983 |
| GGACGGCAUGGUCCCUGCCUCCUCGCUGGCGCCGGCUGGGCAACAUUCCGAGGGGACCGUCCCCUCGGUAAUGGCGAAUGGGACCCA [C3A A16U] | 0.318 |
| GGCCGGCAUGGUCCCAGCCUCCUCGCUGGCGCCGGCUGGGCAACAUUCCGAGGGGACUGUCCCGUCGGUAAUGGCGAAUGGGACCCA [C58U C64G] | 0.895 |
| GGCCGGCAUGGUCCCAGCCUCCUCGCUGGCGUCGGCUGGGCAACAUUCCGAGGGGACCGUGCCCUCGGUAAUGGCGAAUGGGACCCA [C32U C61G] | 0.791 |
| GGCCGGCAUGAUCCCAGCCUCCUCGCUGGCGCCGGCUGGGCAACAUUCCGAGGGGACCGUCCCCUUGGUAAUGGCGAAUGGGACCCA [G11A C66U] | 0.431 |
| GGCCGGCAUGGUCCCAGCCUCCUCGCUGGAGCCGGCUGGGUAACAUUCCGAGGGGACCGUCCCCUCGGUAAUGGCGAAUGGGACCCA [C30A C41U] | 0.328 |
| GGCCGGCAUGGUCCCAGCCUCCUCGCAGGCGCCGGCUGGGCAACAUUCCGAGGGGACCGUCCCCUCGGUAAUGGCGAAUGAGACCCA [U27A G81A] | 0.914 |
| GGCCGGUAUGGUCCCAGCCUCCUCGCUGGCGCCGGCUGGGCAACAUUCCGAGGGGACCGUCCCCUCGGUAAUGGCGAAUGGGAACCA [C7U C84A] | 1.14 |
| GGCCGGCAUGGUCCCAGCCUCCUCGCUUGCGCCGGCUGGGCAACAUUCCGAGGGGACCGUCCCCUCGGUCAUGGCGAAUGGGACCCA [G28U A70C] | 0.131 |
| GGCCGGCAUGGUCCCAGCCUCCUCGCUGGCGCCGGCUGGGCAACAUUCCGAGGGGACAGUCCCCUCGGUGAUGGCGAAUGGGACCCA [C58A A70G] | 0.807 |
| GGCCGGCAUGGUCCCAGCCUCCUGGCUGGCGCCGGCUGGGCAACAUUCCGAGGGGACCGUCCCCUCGGUAAUGGCGAUUGGGACCCA [C24G A78U] | 0 |
| GGCCGGCAUGGUCCCAGCCUCCUCGCUGGCGCCGGCUGGGCAAGAUUCCGAGGGGACCGUCCCCUCCGUAAUGGCGAAUGGGACCCA [C44G G67C] | 0.755 |
| GGCCGGCAUGGUCCCAGCCUCCUCGCUGGCGCCGGCUGGGCGACACUCCGAGGGGACCGUCCCCUCGGUAAUGGCGAAUGGGACCCA [A42G U46C] | 0.369 |
| GGCCGGCAUUGUCCCAGCCUCCUCGCUGGCGCCGGCUGGGCAACAUUCCGAGGGGACCGUCCCCUCGGUAAUGGGGAAUGGGACCCA [G10U C75G] | 0.0563 |
| GGCCGGCAUGGUCCCAGCCUCCUCGAUGGCGCCGGCUGGGCAACAUUGCGAGGGGACCGUCCCCUCGGUAAUGGCGAAUGGGACCCA [C26A C48G] | 1.07 |
| GGCCGGCAUGGUCCCAGGCUCCUCGCUGGCGCCGGCUGGGCAACAUUCCGAGGGGACCGUCCCCUCGGUCAUGGCGAAUGGGACCCA [C18G A70C] | 0 |
| GGCCGGCAUGGUCCCAGCCUGCUCGCUGGCGCCGGCUGGGCAACAUUCCGAGGGGACCGUCCCUUCGGUAAUGGCGAAUGGGACCCA [C21G C64U] | 0.0287 |
| GGCCGGCCUUGUCCCAGCCUCCUCGCUGGCGCCGGCUGGGCAACAUUCCGAGGGGACCGUCCCCUCGGUAAUGGCGAAUGGGACCCA [A8C G10U] | 0.415 |
| GCCCGGCAUGGUGCCAGCCUCCUCGCUGGCGCCGGCUGGGCAACAUUCCGAGGGGACCGUCCCCUCGGUAAUGGCGAAUGGGACCCA [G2C C13G] | 0.0504 |
| GGCCCGCAUGGUCCCAGCCUCCUAGCUGGCGCCGGCUGGGCAACAUUCCGAGGGGACCGUCCCCUCGGUAAUGGCGAAUGGGACCCA [G5C C24A] | 0.0811 |
| GGCCGGCAUGGUCCCAGCUUCCUCGCUGGCGCCGGCUGGGCAACAUUCCGAGGGGACCAUCCCCUCGGUAAUGGCGAAUGGGACCCA [C19U G59A] | 0.145 |
| GGCCGGCAUGGUCCCAGCCUCCUCGCUGGCGCCGGCUGGGCAACAUUUCGAGGGGACCGUCCCCUCGGUAAUGGCGACUGGGACCCA [C48U A78C] | 0.115 |
| GGCCGGCAGGGUCCCAGCCUCCUCGCUGGCGCCGGCUGGGCAACAUUCCGAGGAGACCGUCCCCUCGGUAAUGGCGAAUGGGACCCA [U9G G54A] | 0.95 |
| GGCCGGCAUGGUCCCAGCCUCCACGCUGGCGCCGGCUGGGCAACAUUCCGAGGGGACCGUCCCCUCGGUCAUGGCGAAUGGGACCCA [U23A A70C] | 1.01 |
